Tested on: EPHA8
TEST_CONTEXT: concentration: 1 μM,replicates: in singlicate; n = 1
REPORTED_PROPERTY: %Inh (%)
State just the number; it will be interpreted in %.

QUERY: Form field - read-out: %Inh; system: EPHA8; submitted item: CCCC(=O)Nc1n[nH]c2ncccc12;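 note: KINOMEscan kinase panel screen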
RESULT: 0

QUERY: Repeat with Cn1ccc2ncnc(Oc3ccc(NC(=O)Nc4cccc(C(F)(F)F)c4)c(F)c3)c21
RESULT: 98.8

QUERY: Moving on to the next compound: CCn1c(-c2nonc2N)nc2cncc(Br)c21
RESULT: 0

QUERY: Do the same for Cn1ccc2ncnc(Oc3ccc(NC(=O)Nc4cnn(C(C)(C)C)c4)c(Cl)c3)c21 please
RESULT: 41

QUERY: Lookup Cc1ccc(Nc2ccnc(Nc3ccc4c(c3)CS(=O)(=O)C4)n2)cc1O.Cl
RESULT: 85

QUERY: Follow-up item: CCN1CCN(CCCC(=O)Nc2n[nH]c3nc(-c4ccc(O)cc4)c(Br)cc23)CC1
RESULT: 0

QUERY: Can you handle COc1cc2c(Nc3ccc(NC(=O)c4ccccc4)cc3)ncnc2cc1OCCCN1CCOCC1 next?
RESULT: 12

QUERY: Proceed to N#Cc1cccc(C(=O)NC2CCN(c3ccnc(Nc4ccc(F)cc4)n3)C2)c1 (centres unmarked)
RESULT: 0

QUERY: What do you get for CC(=O)Nc1nc2cnc(Nc3cc(NC(=O)c4cccc(CC(C)(C)C#N)c4)ccc3C)nc2s1 ?
RESULT: 72

QUERY: Param item: C[C@@H](Oc1cc(-n2cnc3cc(-c4ccncc4)ccc32)sc1C(N)=O)c1ccccc1Cl
RESULT: 15

QUERY: Entry to check: c1ccc(Oc2ccc(Nc3ccnc4ccc(-c5ccccn5)cc34)cc2)cc1
RESULT: 14

QUERY: Here is the next compound: CN(c1ccc2c(c1)nc(NCc1ccc(F)cc1)n2C)c1ccnc(Nc2ccc(CS(C)(=O)=O)cc2)n1.Cl
RESULT: 49

QUERY: Similarly, O=C(Nc1ccc(Oc2ccc3nc(NC(=O)C4CC4)cn3n2)c(F)c1)c1cccn(-c2ccccc2)c1=O ?
RESULT: 79

QUERY: Again, but for Cc1ccc(C(=O)Nc2ccc(Oc3ccc4nc(NC(=O)C5CC5)cn4c3)c(F)c2)c(=O)n1-c1ccccc1
RESULT: 99.8

QUERY: Input CSc1nccc(-c2c(-c3ccc(F)cc3)ncn2CCCN2CCOCC2)n1.Cl
RESULT: 0

QUERY: And the next one, CN1CCN(CCNc2nc3cc(Oc4ccc(NC(=O)Nc5cc(C(F)(F)F)ccc5F)cc4)ccc3[nH]2)CC1.Cl.Cl ?
RESULT: 23

QUERY: Moving on to CN1CCN(CCCNc2nccc(-c3c(-c4ccc(F)cc4)nn4cc(C(N)=O)ccc34)n2)CC1
RESULT: 26
